- system.tested: T1, human TREM2 on cells (human, UniProt Q9NZC2 19-230)
- T1 sequence: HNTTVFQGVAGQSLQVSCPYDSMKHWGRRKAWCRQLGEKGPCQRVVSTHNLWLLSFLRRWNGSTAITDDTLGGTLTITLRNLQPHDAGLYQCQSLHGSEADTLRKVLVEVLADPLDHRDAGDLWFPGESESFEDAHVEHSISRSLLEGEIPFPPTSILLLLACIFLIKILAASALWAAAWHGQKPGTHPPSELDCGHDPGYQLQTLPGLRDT
- protocol: cell-based or functional assay
Catalogue of binders with associated pSyk EC50

// known answers, use as guide
[[record]]
binder = "32E3 (antibody, human IgG2, V domains shown, human IgG2 from hybridoma) VH: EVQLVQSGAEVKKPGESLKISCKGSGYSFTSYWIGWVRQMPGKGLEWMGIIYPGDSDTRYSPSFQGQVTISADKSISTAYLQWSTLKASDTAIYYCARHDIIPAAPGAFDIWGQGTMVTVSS VL: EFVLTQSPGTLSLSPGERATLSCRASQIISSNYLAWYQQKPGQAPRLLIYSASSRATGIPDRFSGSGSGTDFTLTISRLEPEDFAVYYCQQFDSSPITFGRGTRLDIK"
reported_value = "1.2 nM"

[[record]]
binder = "4G10 (antibody, human IgG2, V domains shown, human IgG2 from hybridoma) VH: EVQLVQSGAEVKKPGESLKISCKGSGYSFPSYWIAWVRQMPGKGLEWMGIIYPGDSDTRYSPSFQGQVTISADKSISTAFLKWSSLKASDTAMYFCARQGIEVTGTGGLDVWGQGTTVTVSS VL: DIQMTQSPSSLSASVGDRVTITCRASQGIRNDLGWYQQKPGNAPKRLIYAASSLPSGVPSRFSGSGSGPEFTLTISSLQPEDFATYYCLQHNSYPWTFGQGTKVEIT"
reported_value = "0.47 nM"


Now look at this entry.
# pSyk EC50 lookup, item 13E7 (antibody, human IgG2, V domains shown, human IgG2 from hybridoma) VH: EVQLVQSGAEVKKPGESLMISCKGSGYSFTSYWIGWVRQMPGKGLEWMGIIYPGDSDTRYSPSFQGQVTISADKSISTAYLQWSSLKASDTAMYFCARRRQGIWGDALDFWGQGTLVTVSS VL: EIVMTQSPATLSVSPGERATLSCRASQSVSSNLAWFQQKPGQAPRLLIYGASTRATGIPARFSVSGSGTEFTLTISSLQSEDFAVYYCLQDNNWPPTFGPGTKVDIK 0.4 nM
